Target or system Glucocorticoid receptor (Homo sapiens); recorded quantity pIC50.
pIC50: −log10 of the molar value.

{"columns": ["COMPOUND", "pIC50"],
 "data": [
  ["CCC1(CC(O)(C(=O)Nc2ccc3c(=O)onc(C)c3c2)C(F)(F)F)CCOc2ccccc21 (stereo in doubt; 38)", "< 5.00"],
  ["Cc1noc(=O)c2ccc(NC(=O)C(O)(CC3CCCc4ccccc43)C(F)(F)F)cc12 (configuration not stated)", "< 6.00"]
]}

query: Report pIC50 from Glucocorticoid receptor (Homo sapiens) testing of CCC(CC)C1(CC(O)(C(=O)Nc2ccc3c(=O)onc(C)c3c2)C(F)(F)F)CCCc2ccccc21 (configuration not stated)
result: 8.92

query: Report pIC50 from Glucocorticoid receptor (Homo sapiens) testing of CCC1(CC(O)(C(=O)Nc2ccc3c(=O)onc(C)c3c2)C(F)(F)F)CCCc2c([N+](=O)[O-])cccc21 (configuration not stated)
result: < 5.00

query: Report pIC50 from Glucocorticoid receptor (Homo sapiens) testing of Cc1noc(=O)c2ccc(NC(=O)C(O)(CC3(C)CCCc4ccccc43)C(F)(F)F)cc12 (stereo in doubt; 35a)
result: < 5.00

---

# TARGET_SYSTEM: Glucocorticoid receptor (Homo sapiens)
pIC50: −log10 of the molar value.
PROPERTY_MEASURED: pIC50

Use these answered entries as a reference point.
{"columns": ["MOLECULE", "OBSERVED_MEASUREMENT"],
 "data": [
  ["Cc1noc(=O)c2ccc(NC(=O)C(O)(CC3(C)CCCc4ccccc43)C(F)(F)F)cc12 (stereo in doubt; 35d)", 7.70],
  ["Cc1noc(=O)c2ccc(NC(=O)C(O)(CC3(C4CCCCC4)CCCc4ccccc43)C(F)(F)F)cc12 (configuration not stated)", 8.48],
  ["CCCCC1(CC(O)(C(=O)Nc2ccc3c(=O)onc(C)c3c2)C(F)(F)F)CCCc2ccccc21 (configuration not stated)", 8.18]
]}

P: CCC1(CC(O)(C(=O)Nc2ccc3c(=O)onc(C)c3c2)C(F)(F)F)CCCCc2ccccc21 (configuration not stated)
Q: CCC1(CC(O)(C(=O)Nc2ccc3c(=O)onc(C)c3c2)C(F)(F)F)CCCc2ccccc21 (configuration not stated)
R: Cc1noc(=O)c2ccc(NC(=O)[C@](O)(C[C@@]3(C4CCCC4)CCCc4ccccc43)C(F)(F)F)cc12
query: Rank descending by pIC50. Labels, requested order.
result: R, Q, P

---

Target or system Glucocorticoid receptor (Homo sapiens, UniProt P04150); recorded quantity IC50.

query: Report IC50 from Glucocorticoid receptor (Homo sapiens, UniProt P04150) testing of Cc1noc(=O)c2ccc(NC(=O)C(O)(CC3CCCc4c(Br)cccc43)C(F)(F)F)cc12 (stereo in doubt; 23f)
result: > 1000 nM

---

pIC50: −log10 of the molar value.
Target or system UniProt P04150; recorded quantity pIC50.

Use these answered entries as a reference point.
{"columns": ["COMPOUND", "pIC50"],
 "data": [
  ["Cc1noc(=O)c2ccc(NC(=O)C(O)(CC3CCCc4cc([N+](=O)[O-])ccc43)C(F)(F)F)cc12 (stereo not given)", "< 6.00"],
  ["Cc1noc(=O)c2ccc(NC(=O)C(O)(CC3CCCc4cc(F)ccc43)C(F)(F)F)cc12 (stereo not given)", "< 6.00"],
  ["Cc1noc(=O)c2ccc(NC(=O)C(O)(CC3CCCc4ccc(F)cc43)C(F)(F)F)cc12 (stereo not given)", "< 6.00"]
]}

query: Report pIC50 from UniProt P04150 testing of Cc1noc(=O)c2ccc(NC(=O)C(O)(CC3(C4CCC4)CCCc4ccccc43)C(F)(F)F)cc12 (stereo not given)
result: 8.31

query: Report pIC50 from UniProt P04150 testing of Cc1noc(=O)c2ccc(NC(=O)C(O)(CC3CCCc4c3cccc4[N+](=O)[O-])C(F)(F)F)cc12 (stereo not given)
result: < 6.00

---

# TARGET_SYSTEM: Glucocorticoid receptor (Homo sapiens, UniProt P04150)
# Sequence (P04150 whole entry): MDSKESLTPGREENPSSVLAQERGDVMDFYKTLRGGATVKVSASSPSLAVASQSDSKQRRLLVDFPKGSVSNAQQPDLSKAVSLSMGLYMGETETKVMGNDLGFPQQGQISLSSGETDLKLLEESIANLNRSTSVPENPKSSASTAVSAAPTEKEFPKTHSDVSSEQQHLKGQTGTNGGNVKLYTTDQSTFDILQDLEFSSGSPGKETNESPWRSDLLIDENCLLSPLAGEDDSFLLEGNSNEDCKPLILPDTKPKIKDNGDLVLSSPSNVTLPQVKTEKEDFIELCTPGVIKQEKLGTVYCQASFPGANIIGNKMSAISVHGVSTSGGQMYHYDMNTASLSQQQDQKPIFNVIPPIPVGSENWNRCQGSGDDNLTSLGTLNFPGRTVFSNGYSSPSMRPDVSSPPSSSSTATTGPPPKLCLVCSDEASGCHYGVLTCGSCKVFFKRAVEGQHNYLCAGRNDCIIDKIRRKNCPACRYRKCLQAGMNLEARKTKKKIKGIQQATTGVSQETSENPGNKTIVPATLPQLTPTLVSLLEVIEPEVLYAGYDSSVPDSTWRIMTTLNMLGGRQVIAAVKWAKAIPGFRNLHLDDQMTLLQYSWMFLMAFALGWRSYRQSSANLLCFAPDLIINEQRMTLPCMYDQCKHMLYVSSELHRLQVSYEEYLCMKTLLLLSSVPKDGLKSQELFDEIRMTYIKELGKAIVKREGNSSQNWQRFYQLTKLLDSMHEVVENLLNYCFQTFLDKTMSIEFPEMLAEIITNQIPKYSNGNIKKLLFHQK
PROPERTY_MEASURED: IC50

{"columns": ["COMPOUND", "IC50"],
 "data": [
  ["CCC1(CC(O)(C(=O)Nc2ccc3c(=O)onc(C)c3c2)C(F)(F)F)CCCc2cc([N+](=O)[O-])ccc21 (stereo not given)", "> 10000 nM"]
]}

query: Report IC50 from Glucocorticoid receptor (Homo sapiens, UniProt P04150) testing of CCC1(CC(O)(C(=O)Nc2ccc3c(=O)onc(C)c3c2)C(F)(F)F)CCCc2ccc([N+](=O)[O-])cc21 (stereo not given)
result: > 10000 nM

query: Report IC50 from Glucocorticoid receptor (Homo sapiens, UniProt P04150) testing of Cc1noc(=O)c2ccc(NC(=O)C(O)(CC3CCCc4c(N)cccc43)C(F)(F)F)cc12 (stereo not given)
result: > 1000 nM

query: Report IC50 from Glucocorticoid receptor (Homo sapiens, UniProt P04150) testing of Cc1noc(=O)c2ccc(NC(=O)C(O)(CC3CCCc4c(F)cccc43)C(F)(F)F)cc12 (stereo not given)
result: > 1000 nM

query: Report IC50 from Glucocorticoid receptor (Homo sapiens, UniProt P04150) testing of COc1cccc2c1CCCC2CC(O)(C(=O)Nc1ccc2c(=O)onc(C)c2c1)C(F)(F)F (stereo not given)
result: > 1000 nM

Data provenance is ChEMBL document CHEMBL1138886.
